pIC50: −log10 of the molar value.
Form: system (MMP-3 (Homo sapiens, UniProt P08254)), quantity (pIC50), values below.
Readout: pIC50

Param item = CCCCCOc1ccc(C(=O)CC(CCn2nnc3ccccc3c2=O)C(=O)O)cc1 (single isomer, unassigned; enantiomer 1) [Comparative Example B-2] ; retrieve measured pIC50.
5.18

Follow-up item: O=C(O)[C@@H]1[C@@H](Cn2nnc3ccccc3c2=O)CC[C@H]1C(=O)c1ccc(-c2ccc(Cl)cc2)cc1 (single isomer, unassigned; enantiomer 2)
7.65

a = CCCCCOc1ccc(C(=O)CC(CCn2nnc3ccccc3c2=O)C(=O)O)cc1 (racemic) [Comparative Example B-1]
b = O=C(O)[C@H]1[C@H](Cn2nnc3ccccc3c2=O)CC[C@@H]1C(=O)c1ccc(OCc2ccccc2)cc1 (racemic) [Example 1]
c = O=C(O)[C@H]1[C@H](Cn2nnc3ccccc3c2=O)CC[C@@H]1C(=O)c1ccc(-c2ccc(Cl)cc2)cc1 (racemic)
# sort list by recorded pIC50, greatest to least # output: labels, in the requested order
c, b, a

###

# Tgt: human macrophage elastase (HME/hMMP-12) (Homo sapiens)
# Construct: 0.5 nM HME; purchased R&D Systems 917-MP
# Sequence (P39900 106-470): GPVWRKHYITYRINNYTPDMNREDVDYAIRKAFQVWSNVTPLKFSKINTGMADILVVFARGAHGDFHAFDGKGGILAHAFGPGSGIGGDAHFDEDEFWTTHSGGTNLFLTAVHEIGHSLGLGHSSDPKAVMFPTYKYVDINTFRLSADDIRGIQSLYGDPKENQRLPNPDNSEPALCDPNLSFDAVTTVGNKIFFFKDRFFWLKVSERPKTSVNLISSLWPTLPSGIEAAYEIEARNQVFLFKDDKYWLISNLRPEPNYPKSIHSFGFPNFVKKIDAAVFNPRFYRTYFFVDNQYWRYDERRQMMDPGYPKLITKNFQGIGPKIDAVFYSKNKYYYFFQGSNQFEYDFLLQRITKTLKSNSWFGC
# Test: In vitro HME inhibition test in the presence of serum albumin (2% BSA)
# Format: biochemical
# Measurement setup: presence of serum albumin (BSA, 2% w/w)
Readout: IC50 (nM)

Value wanted: IC50 (human macrophage elastase (HME/hMMP-12) (Homo sapiens)) of entry CCCCCOc1ccc(C(=O)CC(CCn2nnc3ccccc3c2=O)C(=O)O)cc1 (single isomer, unassigned; enantiomer 1)
170

P = O=C(O)[C@@H]1[C@@H](Cn2nnc3ccccc3c2=O)CC[C@H]1C(=O)c1ccc(-c2ccc(Cl)cc2)cc1 (single isomer, unassigned; enantiomer 2)
Q = O=C(O)[C@H]1[C@H](Cn2nnc3ccccc3c2=O)CC[C@@H]1C(=O)c1ccc(OCc2ccccc2)cc1
Look at P and Q . Which one has the lower recorded IC50 number? API: response body contains the label of the selected item.
P

###

# Test: Pharmacokinetic investigations in vivo, mouse
# Measurement setup: plasma, iv; Mouse (C57BL/6); read-out: CLPlasma CLblood (converted)
Readout: clearance (mL/min/kg)
Return type: number; implicit unit mL/min/kg.

// clearance lookup, key: "O=C(O)[C@H]1[C@H](Cn2nnc3ccccc3c2=O)CC[C@@H]1C(=O)c1ccc(OCc2ccccc2)cc1"
0.367

###

# Tgt: human macrophage elastase (HME/hMMP-12) (Homo sapiens)
# Construct: 0.5 nM HME; purchased R&D Systems 917-MP
# Test: In vitro HME inhibition test (standard / high-sensitivity), without BSA
# Format: biochemical
# Measurement setup: absence of serum albumin (BSA)
pIC50: −log10 of the molar value.
Readout: pIC50

Solved entries:
Quick one: pIC50 for O=C(O)[C@@H]1[C@@H](Cn2nnc3ccccc3c2=O)CC[C@H]1C(=O)c1ccc(-c2ccc(Cl)cc2)cc1 (single isomer, unassigned; enantiomer 1) [Comparative Example A-2] ?
7.18

Another: O=C(O)[C@H]1[C@H](Cn2nnc3ccccc3c2=O)CC[C@@H]1C(=O)c1ccc(OCc2ccccc2)cc1 (racemic) [Example 1]
10.23

1 = CCCCCOc1ccc(C(=O)CC(CCn2nnc3ccccc3c2=O)C(=O)O)cc1 (racemic) [Comparative Example B-1]
2 = O=C(O)[C@@H]1[C@@H](Cn2nnc3ccccc3c2=O)CC[C@H]1C(=O)c1ccc(OCc2ccccc2)cc1
Larger number for pIC50: 1 , or 2 ? Please identify the chosen entry by its label.
1

Hey, just so you know, these numbers are from patent US20170119776A1.
